assay: Volume of distribution at steady state in rat after iv administration
Assay type: ADME, organism-based
particulars: in vivo

{"columns": ["smilesRepresentation", "unitSymbol", "Vdss"],
 "data": [
  ["C[C@@H](O)[C@H]1C(=O)N2C(C(=O)O)=C(SCCOC(N)=O)S[C@H]12", "L/kg", 0.17],
  ["COc1cccc2c1C(=O)c1c(O)c3c(c(O)c1C2=O)C[C@@](O)(C(=O)CO)C[C@@H]3O[C@H]1C[C@H](N)[C@H](O)[C@H](C)O1", "L/kg", 25],
  ["C[C@]12C=CC(=O)C=C1CC[C@@H]1[C@@H]2C(=O)C[C@@]2(C)[C@H]1CC[C@]2(O)C(=O)CO", "L/kg", 1.4],
  ["N[C@H](C(=O)O)[C@@H]1CC(Cl)=NO1", "L/kg", 0.65]
]}
